System: GP5d (Colorectal Carcinoma)
ASSAY NAME: combination Emax (second highest fraction inhibited in the dose matrix, 72 h); higher = more inhibition; extreme values may be limits of the assay
Decide by combination Emax: equal to or exceeding 0.7 means MET, less means NOT MET.

Determine whether measured combination Emax meets or exceeds 0.7 for Cc1cc2ncnn2cc1Nc1ncc2c(n1)n(C1CCOCC1)c(=O)n2C [AZD7648] + O=C(c1cc(Cc2n[nH]c(=O)c3ccccc23)ccc1F)N1CCN(C(=O)C2CC2)CC1 [Olaparib] (first compound max 10 µM, 7x7, partner max 10 µM)
NOT MET

Has CCc1c2c(nc3ccc(O)cc13)-c1cc3c(c(=O)n1C2)COC(=O)[C@]3(O)CC [SN-38] + CN(C)CCCOc1ccc(-c2ccc3ncc4c(c3c2)n(C2CCOCC2)c(=O)n4C)cn1 [AZD0156] (first compound max 0.3 µM, 7x7, partner max 1 µM) a recorded combination Emax greater than or equal to 0.7?
NOT MET

Test whether the molecule COc1cccc(OCCCN)c1-c1cc(Nc2cnc(C#N)cn2)n[nH]1 [Prexasertib] + C=CCn1c(=O)c2cnc(Nc3ccc(N4CCN(C)CC4)cc3)nc2n1-c1cccc(C(C)(C)O)n1 [AZD1775] (first compound max 1 µM, partner max 1 µM) records combination Emax of 0.7 or higher.
MET

For this molecule, is measured combination Emax 0.7 or higher? Cc1c2c(nn1C)CSCc1cc(n(C)n1)CSc1cc(c3ccccc3c1)OCCCc1c(C(=O)O)n(C)c3c-2c(Cl)ccc13 [AZD5991] + C1CN(CCC1(C(=O)N[C@@H](CCO)C2=CC=C(C=C2)Cl)N)C3=NC=NC4=C3C=CN4 [Capivasertib] (first compound max 1 µM, 7x7, partner max 3 µM)
MET

Please check the record CS(=O)(=O)CCNCc1ccc(-c2ccc3ncnc(Nc4ccc(OCc5cccc(F)c5)c(Cl)c4)c3c2)o1 [Lapatinib] + C[C@@H](Oc1cc(-c2cnn(C3CCNCC3)c2)cnc1N)c1c(Cl)ccc(F)c1Cl [Crizotinib] (first compound max 10 µM, 7x7, partner max 10 µM) and state if its combination Emax is at or above 0.7.
MET

----------
Test system: NCI-H446 (Small Cell Lung Carcinoma)
ASSAY NAME: combination Emax (second highest fraction inhibited in the dose matrix, 72 h); higher = more inhibition; extreme values may be limits of the assay
PROPERTY NAME: combination Emax
Answer as a number with no unit attached.

Name the reported combination Emax value associated with the compound CN(CCO)CC[C@H](CSc1ccccc1)Nc1ccc(S(=O)(=O)NC(=O)c2ccc(N3CCC([C@@H](O)c4ccccc4-c4ccc(Cl)cc4)CC3)cc2)cc1S(=O)(=O)C(F)(F)F [AZD4320] + C=CCn1c(=O)c2cnc(Nc3ccc(N4CCN(C)CC4)cc3)nc2n1-c1cccc(C(C)(C)O)n1 [AZD1775] (first compound max 1 µM, partner max 1 µM)
0.963

----------
Test system: TE-8 (Esophageal Squamous Cell Carcinoma)
ASSAY NAME: combination Emax (second highest fraction inhibited in the dose matrix, 72 h); higher = more inhibition; extreme values may be limits of the assay
Response key: t means combination Emax >= 0.4; f means combination Emax < 0.4.

Does COc1cccc(OCCCN)c1-c1cc(Nc2cnc(C#N)cn2)n[nH]1 [Prexasertib] + Cc1cc2ncnn2cc1Nc1ncc2c(n1)n(C1CCOCC1)c(=O)n2C [AZD7648] (first compound max 1 µM, 7x7, partner max 10 µM) have a reported combination Emax of at least 0.4?
t

Given C[C@@H](c1ccc2nccn2c1)n1nnc2ncc(-c3cnn(C)c3)nc21 [Savolitinib] + Cc1c2c(nn1C)CSCc1cc(n(C)n1)CSc1cc(c3ccccc3c1)OCCCc1c(C(=O)O)n(C)c3c-2c(Cl)ccc13 [AZD5991] (first compound max 1 µM, 7x7, partner max 1 µM) , state whether its combination Emax is at least 0.4.
f

Determine whether this molecule has combination Emax no lower than 0.4: Cc1c2c(nn1C)CSCc1cc(n(C)n1)CSc1cc(c3ccccc3c1)OCCCc1c(C(=O)O)n(C)c3c-2c(Cl)ccc13 [AZD5991] + C[C@@H](Nc1cc(F)cc(F)c1)c1cc(C(=O)N(C)C)cc2c(=O)cc(N3CCOCC3)oc12 [AZD8186] (first compound max 1 µM, 7x7, partner max 3 µM)
f

Confirm if combination Emax reported for the molecule CS(=O)(=O)CCNCc1ccc(-c2ccc3ncnc(Nc4ccc(OCc5cccc(F)c5)c(Cl)c4)c3c2)o1 [Lapatinib] + C[C@@H](Oc1cc(-c2cnn(C3CCNCC3)c2)cnc1N)c1c(Cl)ccc(F)c1Cl [Crizotinib] (first compound max 10 µM, 7x7, partner max 10 µM) is 0.4 or above.
t

Item COc1cc2c(cc1OCCCCCOc1cc3c(cc1OC)C(=O)N1C=C(C)C[C@H]1C=N3)N=C[C@@H]1CC(C)=CN1C2=O [SG3199] + O=C(c1cc(Cc2n[nH]c(=O)c3ccccc23)ccc1F)N1CCN(C(=O)C2CC2)CC1 [Olaparib] (first compound max 0.001 µM, 7x7, partner max 10 µM) with combination Emax of 0.4 or above?
f

Hello, I need to know if COc1cccc(OCCCN)c1-c1cc(Nc2cnc(C#N)cn2)n[nH]1 [Prexasertib] + O=C(c1cc(Cc2n[nH]c(=O)c3ccccc23)ccc1F)N1CCN(C(=O)C2CC2)CC1 [Olaparib] (first compound max 1 µM, 7x7, partner max 10 µM) has measured combination Emax not below 0.4. Thanks!
t

hey, is combination Emax for this one >= 0.4? Cc1cc2ncnn2cc1Nc1ncc2c(n1)n(C1CCOCC1)c(=O)n2C [AZD7648] + O=C(c1cc(Cc2n[nH]c(=O)c3ccccc23)ccc1F)N1CCN(C(=O)C2CC2)CC1 [Olaparib] (first compound max 10 µM, 7x7, partner max 10 µM)
f

Confirm if combination Emax reported for the molecule Cc1c2c(nn1C)CSCc1cc(n(C)n1)CSc1cc(c3ccccc3c1)OCCCc1c(C(=O)O)n(C)c3c-2c(Cl)ccc13 [AZD5991] + CCN(CCO)CCCOc1ccc2c(Nc3cc(CC(=O)Nc4cccc(F)c4)[nH]n3)ncnc2c1 [AZD2811] (first compound max 1 µM, 7x7, partner max 1 µM) is 0.4 or above.
t

----------
Provide the recorded Bliss excess for the entries that follow.
Test system: HEC-1 (Endometrial Carcinoma);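 further: after 72 h of two-drug dosing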
ASSAY NAME: Bliss excess, mean over the matrix (fraction); higher = more synergy
Form field (numeric): enter value without unit.

Name the reported Bliss excess value associated with the compound C=CCn1c(=O)c2cnc(Nc3ccc(N4CCN(C)CC4)cc3)nc2n1-c1cccc(C(C)(C)O)n1 [AZD1775] + O=C(c1cc(Cc2n[nH]c(=O)c3ccccc23)ccc1F)N1CCN(C(=O)C2CC2)CC1 [Olaparib] (first compound max 1 µM, partner max 10 µM)
0.0039

Look up Bliss excess: CC1(C)CCC(CN2CCN(c3ccc(C(=O)NS(=O)(=O)c4ccc(NCC5CCOCC5)c([N+](=O)[O-])c4)c(Oc4cnc5[nH]ccc5c4)c3)CC2)=C(c2ccc(Cl)cc2)C1 [Venetoclax] + C=CCn1c(=O)c2cnc(Nc3ccc(N4CCN(C)CC4)cc3)nc2n1-c1cccc(C(C)(C)O)n1 [AZD1775] (first compound max 1 µM, partner max 1 µM)
-0.0569

Requested read-out: Bliss excess. Entry: COc1cccc(OCCCN)c1-c1cc(Nc2cnc(C#N)cn2)n[nH]1 [Prexasertib] + O=C(c1cc(Cc2n[nH]c(=O)c3ccccc23)ccc1F)N1CCN(C(=O)C2CC2)CC1 [Olaparib] (first compound max 1 µM, 7x7, partner max 10 µM)
-0.0535

Fill blank: measured Bliss excess of the compound Cn1cnc2c(F)c(Nc3ccc(Br)cc3Cl)c(C(=O)NOCCO)cc21 [Selumetinib] + C[C@@H]1COCCN1C2=NC(=NC(=C2)C3(CC3)[S@](=N)(=O)C)C4=C5C=CNC5=NC=C4 [AZD6738] (first compound max 10 µM, 7x7, partner max 10 µM) is ____.
-0.0317

So what does the record say about Bliss excess for COc1nnc2ccc(N3CCC(c4ccc(OCCN5CCN(C)C(=O)[C@H]5C)cc4)CC3)nn12 [AZD5153] + CC1(C)CCC(CN2CCN(c3ccc(C(=O)NS(=O)(=O)c4ccc(NCC5CCOCC5)c([N+](=O)[O-])c4)c(Oc4cnc5[nH]ccc5c4)c3)CC2)=C(c2ccc(Cl)cc2)C1 [Venetoclax] (first compound max 1 µM, 7x7, partner max 1 µM) ?
-0.0443

Request the reported Bliss excess associated with CN(CCO)CC[C@H](CSc1ccccc1)Nc1ccc(S(=O)(=O)NC(=O)c2ccc(N3CCC([C@@H](O)c4ccccc4-c4ccc(Cl)cc4)CC3)cc2)cc1S(=O)(=O)C(F)(F)F [AZD4320] + Cn1cnc2c(F)c(Nc3ccc(Br)cc3Cl)c(C(=O)NOCCO)cc21 [Selumetinib] (first compound max 1 µM, 7x7, partner max 3 µM)
-0.018

Look at this compound and give its reported Bliss excess. CN(CCO)CC[C@H](CSc1ccccc1)Nc1ccc(S(=O)(=O)NC(=O)c2ccc(N3CCC([C@@H](O)c4ccccc4-c4ccc(Cl)cc4)CC3)cc2)cc1S(=O)(=O)C(F)(F)F [AZD4320] + Cc1cc2ncnn2cc1Nc1ncc2c(n1)n(C1CCOCC1)c(=O)n2C [AZD7648] (first compound max 1 µM, 7x7, partner max 10 µM)
-0.0402
